Source of measurements: paper PMC6562126

# Target Or Test System: Aci01347 (Acinetobacter baumannii, UniProt D0C9N4)
# Construct: gene HMPREF0010_01347; N-terminal His6 tag, pBAD/HisA; expressed in E. coli MKH13 (no compatible solute transporters)
# Sequence (D0C9N4 whole entry): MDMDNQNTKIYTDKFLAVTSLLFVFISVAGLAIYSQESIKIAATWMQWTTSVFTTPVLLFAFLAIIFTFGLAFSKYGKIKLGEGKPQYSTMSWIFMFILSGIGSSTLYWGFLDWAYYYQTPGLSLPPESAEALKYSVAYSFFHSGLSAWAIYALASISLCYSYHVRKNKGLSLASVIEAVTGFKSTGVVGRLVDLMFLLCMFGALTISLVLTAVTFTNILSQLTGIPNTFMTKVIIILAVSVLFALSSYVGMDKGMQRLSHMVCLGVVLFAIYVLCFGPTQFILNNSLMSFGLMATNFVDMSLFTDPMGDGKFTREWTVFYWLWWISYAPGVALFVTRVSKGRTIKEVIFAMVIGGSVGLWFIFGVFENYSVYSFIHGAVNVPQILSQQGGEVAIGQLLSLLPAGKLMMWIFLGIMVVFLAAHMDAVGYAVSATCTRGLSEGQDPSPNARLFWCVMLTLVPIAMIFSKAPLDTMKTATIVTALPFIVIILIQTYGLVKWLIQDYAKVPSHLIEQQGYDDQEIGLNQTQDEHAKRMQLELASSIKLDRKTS
# Assay Summary: competition with […]-choline uptake in E. coli MKH13 expressing Aci01347
# Format: cell-based
# Measurement Conditions: read-out: % inhibition at 0.5 mM
Entries annotated with measured inhibition at 500 µM
Express your answer in %, writing the number without its unit.

Some solved cases for reference:
CC1=NCC[C@@H](C(=O)O)N1 : 9.2
C[N+]1(C)CCC[C@H]1C(=O)[O-] : 2.4
O=C(O)[C@@H]1CCCN1 : 4.6

With those in mind, consider the next compound.
Quote inhibition at 500 µM with test system Aci01347 (Acinetobacter baumannii, UniProt D0C9N4) for C[N+](C)(C)CC(=O)[O-] 14.5
